Species: Homo sapiens
Test Protocol: Inhibition of Hsp90alpha/Aha1 interaction in human PC3MM2 cells assessed as remaining Hsp90alpha/Aha complex levels at 100 uM after 24 hrs by Western blot analysis (reference value: 98 to 100 %)
Assay type: cell-based
Kindly supply the reported remaining Hsp90alpha/Aha1 complex level values for the records listed here.
Value expressed in %; do not type the unit.

Note to self: remaining Hsp90alpha/Aha1 complex level recorded for CO[C@@H]1[C@@H](O)[C@@H](O)[C@H](Oc2ccc3cc(NC(=O)C4CC4)c(=O)oc3c2C)OC1(C)C was 68

So, CCCC(=O)Nc1cc2ccc(O[C@@H]3OC(C)(C)[C@H](OC)[C@@H](O)[C@H]3O)c(C)c2oc1=O ? Its remaining Hsp90alpha/Aha1 complex level was 100

GET /value?item= CCCCC(=O)Nc1cc2ccc(O[C@@H]3OC(C)(C)[C@H](OC)[C@@H](O)[C@H]3O)c(C)c2oc1=O &field=remaining Hsp90alpha/Aha1 complex level returns 72

The recorded remaining Hsp90alpha/Aha1 complex level for entry CCC(=O)Nc1cc2ccc(O[C@@H]3OC(C)(C)[C@H](OC)[C@@H](O)[C@H]3O)c(C)c2oc1=O equals 86
